Numbers sourced from ChEMBL document CHEMBL1781941.

- Tested on: K562
- assay_method_text: Antitumor activity against human K562 cells
- Type: functional, cell-based
Measured log10(IC50) by item
readout: log10(IC50) (log10 of the value in nM)

# molecule_smiles, readout_value
measured = [
    ("Cc1[nH]c(/C=C2\\C(=O)N(CCCN(C)C)c3ccc(Cl)cc32)c(C)c1C(=O)N1CCCCC1", 3.33),
    ("Cc1[nH]c(/C=C2\\C(=O)N(CCCN(C)C)c3ccc(Cl)cc32)c(C)c1C(=O)NCCN(C)C", 2.72),
    ("Cc1[nH]c(/C=C2\\C(=O)N(CCCN(C)C)c3ccc(F)cc32)c(C)c1C(=O)N(C)C", 4.13),
    ("Cc1[nH]c(/C=C2\\C(=O)N(CCCN(C)C)c3ccc(Cl)cc32)c(C)c1C(=O)N1CCCC1", 3.82),
    ("Cc1[nH]c(/C=C2\\C(=O)N(CCCN(C)C)c3ccc(Cl)cc32)c(C)c1C(=O)N1CCN(C)CC1", 3.15),
    ("CCN(CC)CCNC(=O)c1c(C)[nH]c(/C=C2\\C(=O)N(CCCN(C)C)c3ccc(F)cc32)c1C", 3.12),
    ("Cc1[nH]c(/C=C2\\C(=O)N(CCCN(C)C)c3ccc(F)cc32)c(C)c1C(=O)N1CCN(C)CC1", 3.72),
    ("CCN(CC)CCNC(=O)c1c(C)[nH]c(/C=C2\\C(=O)Nc3ccc(F)cc32)c1C", 3.38),
    ("Cc1[nH]c(/C=C2\\C(=O)N(CCCN(C)C)c3ccc(Cl)cc32)c(C)c1C(=O)N(C)C", 3.83),
    ("Cc1[nH]c(/C=C2\\C(=O)N(CCCN(C)C)c3ccc(F)cc32)c(C)c1C(=O)N1CCCC1", 4.06),
    ("Cc1[nH]c(/C=C2\\C(=O)N(CCCN(C)C)c3ccc(F)cc32)c(C)c1C(=O)N1CCCCC1", 3.61),
    ("CCN1CCN(C(=O)c2c(C)[nH]c(/C=C3\\C(=O)N(CCCN(C)C)c4ccc(F)cc43)c2C)CC1", 3.78),
    ("CCN(CC)CCNC(=O)c1c(C)[nH]c(/C=C2\\C(=O)N(CCCN(C)C)c3ccc(Cl)cc32)c1C.Cl.Cl.Cl", 2.72),
    ("CCN1CCN(C(=O)c2c(C)[nH]c(/C=C3\\C(=O)N(CCCN(C)C)c4ccc(Cl)cc43)c2C)CC1", 3.39),
    ("CCN(CC)C(=O)c1c(C)[nH]c(/C=C2\\C(=O)N(CCCN(C)C)c3ccc(F)cc32)c1C", 3.69),
    ("Cc1[nH]c(/C=C2\\C(=O)N(CCCN(C)C)c3ccc(F)cc32)c(C)c1C(=O)NCCN(C)C", 3.16),
    ("CCN(CC)C(=O)c1c(C)[nH]c(/C=C2\\C(=O)N(CCCN(C)C)c3ccc(Cl)cc32)c1C", 3.32),
]
